protocol: Racecadotril and degradation products over time in Acetate and Citrate at pH 3.6, 4.0, 4.5 (untitled table)
Type: physicochemical
details: Citrate, pH 3.6, Initial
reported metric: Thiorphan (%)
# number only, unit % dropped from output

Memo: CC(=O)SCC(Cc1ccccc1)C(=O)NCC(=O)OCc1ccccc1 (racemic) [Racecadotril] , reported Thiorphan: 0

* * *

protocol: Racecadotril and degradation products over time in Acetate and Citrate at pH 3.6, 4.0, 4.5 (untitled table)
Type: physicochemical
details: Citrate, pH 4.5, 1 week
reported metric: Benz Alcohol (%)
# number only, unit % dropped from output

Memo: CC(=O)SCC(Cc1ccccc1)C(=O)NCC(=O)OCc1ccccc1 (racemic) , reported Benz Alcohol: 0.22
